- protocol: Quantitative highthroughput screen to assess conditional lethalithy of P12 Ichikawa cells grown in RPMI1640 with untreated serum (RPMI+s) (AID 1963881); also: nearly all actives have a fitted effect of over 35% in size
- condition.parameters: ATP luminescence, 48 h; viability; series mostly up to 45.8 µM
Results filed as inconclusive are left out. Activity calls are given as the source filed them. Calls follow the shape of the dose curve; as a rule, active = well fitted cell-killing curve with a large enough effect; inconclusive = small, poorly fitted or top-dose-only effect; inactive = flat fitted curve, though single readings scatter.
The reply should be one of these categories: y for active, n for inactive

Check the results log: what was the call for CC(O)=C(C#N)C(=O)Nc1ccc(C(F)(F)F)cc1 ?
n

Check the results log: what was the call for CC(C=CC1=C(C)CCCC1(C)C)=CC=CC(C)=CC(=O)O ?
n

Check the results log: what was the call for CC(C)N1[N]C(=C2C=c3cc(O)ccc3=N2)c2c(N)ncnc21 ?
y

Check the results log: what was the call for C[C@@H]1[C@H](O)[C@@H](C)C=CC=CC=CC=CC=CC=CC=C[C@H](O[C@@H]2O[C@H](C)[C@H](O)[C@H](N)[C@@H]2O)C[C@@H]2O[C@](O)(C[C@@H](O)C[C@@H](O)[C@H](O)CC[C@@H](O)C[C@@H](O)CC(=O)O[C@H]1C)C[C@H](O)[C@@H]2C(=O)O ?
n

Check the results log: what was the call for CC(C)NCC(O)c1ccc(O)c(O)c1 (stereo unspecified) ?
y

Check the results log: what was the call for CC(=O)NC(C)c1ccc(Oc2ccc(OC(C)C)cc2)cc1 (stereo unspecified) ?
n

Check the results log: what was the call for Clc1ccc2c(c1)C(N1CCNCC1)=Nc1ccccc1O2 ?
n

Check the results log: what was the call for CC(C)(C)NC(=O)[C@H]1CC[C@H]2[C@@H]3CC[C@H]4NC(=O)C=C[C@]4(C)[C@H]3CC[C@]12C ?
y

Check the results log: what was the call for Cc1ccc(C(=O)N(CCCN)[C@@H](c2oc3cc(Cl)ccc3c(=O)c2Cc2ccccc2)C(C)C)cc1 ?
n

Check the results log: what was the call for N#Cc1c(C2CCNCC2)cc(-c2c(O)cccc2OCC2CC2)nc1N ?
n

Check the results log: what was the call for OC[C@@H](O)[C@@H](O)[C@H](O)[C@@H](O)CO ?
n

Check the results log: what was the call for O=C(NCc1ccncc1)C12C[C@H]3C[C@@H](C1)CC(c1ccc(Cl)cc1)(C3)C2 ?
y

Check the results log: what was the call for CCCCCN(CCC12CC3CC(CC(C3)C1)C2)C(=O)NCCCc1ccncc1 ?
n

Check the results log: what was the call for CC(C)(O)CC[C@@H](O)[C@](C)(O)[C@H]1CC[C@@]2(O)C3=CC(=O)[C@@H]4C[C@@H](O)[C@@H](O)C[C@]4(C)[C@@H]3CC[C@]12C ?
n

Check the results log: what was the call for COCCCN1CCC(NC(=O)c2cc(Cl)c(N)c3c2OCC3)CC1 ?
y

Check the results log: what was the call for Nc1nc(-c2nn(Cc3ccccc3F)c3ncccc23)nc(N)c1N1CCOCC1 ?
n
